System: SR leukemia
assay.comment: NCI-60 one-dose screen, 48 h
stated.conditions: 10 µM unless noted
The panel holds about 83,000 compounds, 20% with a hit somewhere; the sample as a whole holds those more often. Calls of active or inactive are those of the source. The calls were made as follows: active = growth percent below 10; inactive = the rest.
Outcome codes: t (active), f (inactive)

[[record]]
compound = "Nc1nnnc2nc[nH]c12"
label_class = "t"

[[record]]
compound = "CCCCCCCCC(CO)NCCc1ccccc1 (centres undefined)"
label_class = "f"

[[record]]
compound = "COC1CC2c3ccccc3C1C(C)=[N+]2C (centres undefined)"
label_class = "f"

[[record]]
compound = "COC(=O)[C@@H](C[C@H](Cc1ccccc1)NC(=O)c1csc([C@@H](C[C@H](C(C)C)N(C)C(=O)[C@@H](NC(=O)[C@H]2CCCCN2C)C(C)C)OC(C)=O)n1)NC(=O)OCc1ccccc1"
label_class = "t"

[[record]]
compound = "CC(=O)C(c1c(O)c2ccccc2oc1=O)c1cc(=O)oc2c1ccc1ccccc12 (centres undefined)"
label_class = "f"

[[record]]
compound = "CC(C)[C@@H]1NC(=O)[C@]2(C)CSC(=N2)c2csc(n2)CNC(=O)C[C@@H](/C=C/CCS)OC1=O"
label_class = "f"

[[record]]
compound = "CCn1cnc2c(Nc3cccc(Cl)c3)nc(N[C@@H]3CCCC[C@@H]3N)nc21"
label_class = "t"

[[record]]
compound = "CC(C)(C)C(=O)OCOP(=O)(OCOC(=O)C(C)(C)C)C1CCCN(O)C1=O (centres undefined)"
label_class = "f"

[[record]]
compound = "CC(=O)[C@H]1CC[C@H]2[C@@H]3CC[C@H]4C[C@H](N)CC[C@]4(C)[C@H]3CC[C@]12C"
label_class = "f"

[[record]]
compound = "c1ccc(Nc2nc(-c3ccccc3)c[se]2)cc1"
label_class = "f"

[[record]]
compound = "CC12CC(=O)C3(SC#N)C(CCC4=CC(=O)CCC43C)C1CCC2=O (centres undefined)"
label_class = "f"

[[record]]
compound = "COC(=O)[C@@H](C)C[C@H](Cc1ccccc1)NC(=O)c1csc([C@@H](C[C@H](C(C)C)N(C)C(=O)[C@H](C)NC(=O)[C@H]2CCCCN2C)OC(C)=O)n1"
label_class = "f"

[[record]]
compound = "COc1cc(/C=C/[N+](=O)[O-])c([N+](=O)[O-])cc1OC"
label_class = "f"

[[record]]
compound = "CCCCCCCCCCCCCCCCCCOc1ccccc1COP(=O)(O)OOCC[N+](C)(C)C"
label_class = "t"

[[record]]
compound = "Cn1cc(C2=C(c3cn(C4CCN(Cc5ccccn5)CC4)c4ccccc34)C(=O)NC2=O)c2ccccc21"
label_class = "t"

[[record]]
compound = "CCCCCC1(CCBr)C(=O)NC(=O)NC1=O"
label_class = "f"

[[record]]
compound = "O=[N+]([O-])c1cc(I)cc([N+](=O)[O-])c1"
label_class = "f"

[[record]]
compound = "COC(=O)[C@@H](C)C[C@H](Cc1ccccc1)NC(=O)c1nc([C@@H](C[C@H](C(C)C)N(C)C(=O)[C@@H](NC(=O)[C@H]2CCCCN2C)C(C)C)OC(C)=O)sc1C(C)C"
label_class = "t"

[[record]]
compound = "CCOP(=O)(Nc1ccc2c(c1)/C(=N/NC(N)=S)c1ccccc1-2)OCC"
label_class = "f"

